- STUDY_TARGET: Pim-2 (Homo sapiens (Human), UniProt Q9P1W9)
- Sequence (Q9P1W9 whole entry): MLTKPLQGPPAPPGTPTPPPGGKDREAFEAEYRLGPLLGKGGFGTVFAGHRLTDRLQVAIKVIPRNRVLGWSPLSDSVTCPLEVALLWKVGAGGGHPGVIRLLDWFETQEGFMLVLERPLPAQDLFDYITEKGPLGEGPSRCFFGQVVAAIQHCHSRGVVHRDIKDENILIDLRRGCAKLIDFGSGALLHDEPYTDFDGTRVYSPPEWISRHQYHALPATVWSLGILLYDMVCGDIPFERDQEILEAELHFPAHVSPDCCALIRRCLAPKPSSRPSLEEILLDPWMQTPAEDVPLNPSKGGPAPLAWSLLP
- TEST_SUMMARY: ADP-Glo Kinase Assay, Pim-2
- Assay type: biochemical
- CONDITION_CONTEXT: 1 μM compound; read-out: Pim-2 % INH (1 μM)
ENDPOINT_NAME: inhibition at 1 µM (%)

{"COMPOUND": "CC(C)Cn1c(NCC(O)CN)nc2c([N+](=O)[O-])c(Br)c(Br)cc21 (stereo not shown) [Example 1Y]", "ENDPOINT_NAME": "inhibition at 1 µM", "READING_UNIT": "%", "EXPERIMENTAL_RESULT": 25}

(P) CC(C)n1c(N2CCC[C@H](O)C2)nc2c([N+](=O)[O-])c(Br)c(Br)cc21 [Example 22I]
(Q) CC(C)n1c(N2CCCC(N)C2)nc2c([N+](=O)[O-])c(Br)c(Br)cc21 (stereo not shown) [Example 1T]
From the items above, decide which of P and Q has the lower inhibition at 1 µM reading. Write down the label attached to your selection.
P
(P: 28%, Q: 81%)

(P) CCn1c(N2CCCN(C)CC2)nc2c([N+](=O)[O-])c(Br)c(Br)cc21 [Example 22M]
(Q) CC(C)n1c(N2CCC[C@H](N)C2)nc2c(C#N)c(Br)c(Br)cc21 [Example 1BJ]
From the items above, decide which of P and Q has the lower inhibition at 1 µM reading. Write down the label attached to your selection.
P

###

- STUDY_TARGET: Pim-1 (Homo sapiens (Human), UniProt P11309)
- Sequence (P11309 whole entry): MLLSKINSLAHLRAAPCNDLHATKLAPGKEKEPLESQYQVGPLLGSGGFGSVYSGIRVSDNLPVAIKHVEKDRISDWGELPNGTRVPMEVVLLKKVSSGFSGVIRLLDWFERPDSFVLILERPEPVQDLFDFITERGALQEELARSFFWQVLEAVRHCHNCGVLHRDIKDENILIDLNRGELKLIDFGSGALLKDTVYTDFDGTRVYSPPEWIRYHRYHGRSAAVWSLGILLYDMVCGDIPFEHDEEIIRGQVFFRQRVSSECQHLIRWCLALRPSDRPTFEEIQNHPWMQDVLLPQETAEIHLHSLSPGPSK
- TEST_SUMMARY: ADP-Glo Kinase Assay, Pim-1
- Type: biochemical
- CONDITION_CONTEXT: 1 μM compound; read-out: Pim-1 % INH (1 μM)
ENDPOINT_NAME: inhibition at 1 µM

{"MOLECULE": "CCCn1c(NCC(O)CN)nc2c([N+](=O)[O-])c(Br)c(Br)cc21 (stereo not drawn)", "STUDY_TARGET": "Pim-1 (Homo sapiens (Human), UniProt P11309)", "inhibition at 1 µM": "> 95%"}
{"MOLECULE": "CCn1c(N2CCCN(C)CC2)nc2c([N+](=O)[O-])c(Br)c(Br)cc21 [Example 22M]", "STUDY_TARGET": "Pim-1 (Homo sapiens (Human), UniProt P11309)", "inhibition at 1 µM": "74%"}
{"MOLECULE": "CC(C)n1c(C2CCC(N)CC2)nc2c([N+](=O)[O-])c(Br)c(Br)cc21 (stereo not drawn) [Example 26D]", "STUDY_TARGET": "Pim-1 (Homo sapiens (Human), UniProt P11309)", "inhibition at 1 µM": "> 95%"}
{"MOLECULE": "CCn1c(N2CCNCC2)nc2c(C#N)c(Br)c(Br)cc21", "STUDY_TARGET": "Pim-1 (Homo sapiens (Human), UniProt P11309)", "inhibition at 1 µM": "82%"}
{"MOLECULE": "CCn1c(N2CCCC2CN)nc2c([N+](=O)[O-])c(Br)c(Br)cc21 (stereo not drawn)", "STUDY_TARGET": "Pim-1 (Homo sapiens (Human), UniProt P11309)", "inhibition at 1 µM": "67%"}

Fill blank: measured inhibition at 1 µM of the molecule CCCn1c(N2CCCC(N)C2)nc2c([N+](=O)[O-])c(Br)c(Br)cc21 (stereo not drawn) is ____.
> 95%

And what about the molecule CC(O)Cn1c(N2CCNCC2)nc2c([N+](=O)[O-])c(Br)c(Br)cc21 (stereo not drawn) ?
> 95%
